biological target: T1, Anti-CD28 scFv (VH - linker 1 - VL) (biotinylated (site not stated)); assay: phage ELISA; biotinylated anti-CD28 scFv on neutravidin plate, clonal phage supernatant, anti-M13-HRP detection;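 further: before phage addition, wells were pretreated with soluble CD28 protein in blocking buffer, or with blocking buffer only as the comparison, then phage were added without washing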
T1 construct: Biotinylated and captured on neutravidin-coated plates in the phage panning ELISA
T1 sequence (scFv, as listed by the source): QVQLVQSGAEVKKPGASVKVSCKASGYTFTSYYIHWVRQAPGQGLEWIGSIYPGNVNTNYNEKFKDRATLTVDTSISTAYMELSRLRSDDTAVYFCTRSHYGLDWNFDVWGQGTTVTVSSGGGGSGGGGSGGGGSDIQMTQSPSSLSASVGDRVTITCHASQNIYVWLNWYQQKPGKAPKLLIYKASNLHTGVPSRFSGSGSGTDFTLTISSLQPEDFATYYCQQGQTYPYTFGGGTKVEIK
Items are presented alongside their recorded CD28 scFv signal.
Output: the number by itself.

Solved entries:
INSERT INTO assay_data (binder, assay_metric, observed_result) VALUES
  ('MDWCPRDRWDDCFF (tested as crude clonal phage supernatant) [Phage-441 clonal phage peptide MDWCPRDRWDDCFF]', 'CD28 scFv signal', 0.899),
  ('VILCPTTMWNRCFH (tested as crude clonal phage supernatant) [Phage-427 clonal phage peptide VILCPTTMWNRCFH]', 'CD28 scFv signal', 0.072),
  ('MYWCPINMWDYCYA (tested as crude clonal phage supernatant) [Phage-422 clonal phage peptide MYWCPINMWDYCYA]', 'CD28 scFv signal', 0.109),
  ('INLCPTPMWNRCWL (tested as crude clonal phage supernatant) [Phage-423 clonal phage peptide INLCPTPMWNRCWL]', 'CD28 scFv signal', 0.103);

So what's the measured CD28 scFv signal for this one? MFLCPSAMWNRCFY (tested as crude clonal phage supernatant) [Phage-426 clonal phage peptide MFLCPSAMWNRCFY] 0.094

Given the entry MDLCPTAMWNRCFY (tested as crude clonal phage supernatant) [Phage-425 clonal phage peptide MDLCPTAMWNRCFY] , report its measured CD28 scFv signal. 0.097

Could you share which CD28 scFv signal value was measured for MDWCPVDRWADCFN (tested as crude clonal phage supernatant) [Phage-437 clonal phage peptide MDWCPVDRWADCFN] ? 1.16

Param item = MDWCPRDRWVDCFN (tested as crude clonal phage supernatant) [Phage-440 clonal phage peptide MDWCPRDRWVDCFN] ; retrieve measured CD28 scFv signal. 0.911
